- assay.system: T1, recombinant human IP-10 (hIP-10) (human, UniProt P02778 22-98)
- T1 sequence (looked up): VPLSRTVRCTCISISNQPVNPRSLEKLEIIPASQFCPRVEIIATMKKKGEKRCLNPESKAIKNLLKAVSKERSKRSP
- test: cell-based or functional assay
The reader will find reported Calcium flux IC50 (nM); 10 nM hIP-10; hCXCR3 L1.2 cells values listed item by item below.
Respond with the bare value in nM.

1) CF1H1R3P3_G11, scFv format (scFv) QVQLVESGGGVVQPGRSLRLSCAASGFTFSNSGIHWVRQAPGKGLEWVAVISYDGSNKFYADSVKGRFTISRDNSKNTLYLQMNSLRAEDTAVYYCAKLRDNGEYLDYWGQGTLVTVSSNFMLTQPHSVSESPGKTVTISCTGSGGSIDRNYVQWYQQRPGSSPTTVIYEDNQRPSGVPDRFSGSIDSSSNSASLTISGLKTEDEADYYCQSYDPLPVWVFGGGTKLTVL    7.8

## Input Provide only the value of recorded Calcium flux IC50 (nM); 10 nM hIP-10; hCXCR3 L1.2 cells for CC21R3P1_H6, scFv format (scFv) QVQLVESGGGVAQSGKSLRLSCAASGFTFSNYGMHWVRQAPGKGLEWLAVISYDGSNRYYADSVKGRFTISRDNSNNTLNLQMSSLRAEDTALYYCAKDAGGPLDYWGKGTLVTVSSQSVLTQLTQPPSVSLAPGQTATITCGGDNIGRKSVHWYQQKPGQAPVLVVYDDTDRPSGIPERFSGSNSGNTATLTISRVEAGDEADYYCQVWDSSIDHSWVFGGGTKLTVL
## Output 71
